tested on: CCRIS mutagenicity, Ames/micronucleus/aberration tests; experiment: CCRIS mutagenicity studies; conditions: Test System: AMES SALMONELLA TYPHIMURIUM; Strain/Indicator: TA100; Metabolic Activation: NONE; Method: STANDARD PLATE
Active and inactive are the calls of the source. No rule for the calls is given here.
Mark one answer only. Choices: 1 for active, -1 for inactive

[Cu+2].[O-]c1cccc2cccnc12.[O-]c1cccc2cccnc12 ... -1
O=[N+]([O-])c1ccc(-c2nc(N(CCO)CCO)c3ccccc3n2)s1 ... 1

In: For O=NN1CCC[C@H]1c1cccnc1 , which call appears in the assay record?
Out: -1

In: For Cc1cc(C)c(S(=O)(=O)O)cc1N=Nc1cc(S(=O)(=O)O)c2ccccc2c1O , which call appears in the assay record?
Out: -1

In: For O=C1C=C[C@]2(O)c3c(ccc(O)c31)-c1ccc(O)c3c1[C@H]2C1OC1C3=O (some centres not stated) , which call appears in the assay record?
Out: 1

In: For O=S(=O)(c1ccc(Cl)cc1)c1cc(Cl)c(Cl)cc1Cl , which call appears in the assay record?
Out: -1

In: For N[C@@H]1C[C@H]1c1ccccc1 , which call appears in the assay record?
Out: -1

In: For COc1ccc(CCl)cc1 , which call appears in the assay record?
Out: -1

In: For CN1CCC=C2c3nc(N)sc3CCC21 (configuration not stated) , which call appears in the assay record?
Out: -1

In: For COC(=O)C12C[C@@]1(C=O)C(C=O)=C[C@@H]1CC(C)(C)C[C@@H]12 (some centres not stated) , which call appears in the assay record?
Out: 1

In: For OC1c2ccc3cccnc3c2C2OC2C1O (configuration not stated) , which call appears in the assay record?
Out: 1

In: For COc1ccc([Se]c2ccc(OC)cc2)cc1 , which call appears in the assay record?
Out: 1
